- test-target: PTGER2 (EP2) (Homo sapiens)
- experimental-details: hEP2 b-Arrestin Assay (PathHunter HEK 293 PTGER2 b-arrestin cells, PGE2 5 μM)
- test-parameters: antagonistic activity, beta-arrestin assay, HEK 293 PTGER2 cells, PGE2 5 μM (EC80); read-out: hEP2 b-arr IC50
pIC50: −log10 of the molar value.

- chemical-string: "CCOc1cc(-c2cc(NCCc3c(OCC)ccc4c3OCO4)ncn2)sc1C(=O)O"
  test-target: "PTGER2 (EP2) (Homo sapiens)"
  pIC50: 8.00
- chemical-string: "CCOc1cc(-c2cc(NCCc3c(OC)ccc4ncccc34)ncn2)ccc1NCC(=O)O"
  test-target: "PTGER2 (EP2) (Homo sapiens)"
  pIC50: 7.03
- chemical-string: "CCOc1cc(-c2cc(NCCc3c(OC)ccc4ccccc34)ncn2)ccc1OCCC(=O)O"
  test-target: "PTGER2 (EP2) (Homo sapiens)"
  pIC50: 7.80
- chemical-string: "CCOc1cc(-c2cc(NCCc3c(C)ccc4ccccc34)ncn2)ccc1OCC(=O)O"
  test-target: "PTGER2 (EP2) (Homo sapiens)"
  pIC50: 7.66
- chemical-string: "COc1ccc2ccc(F)c(CCNc3cc(-c4cc(C(F)(F)F)c(C(=O)O)s4)ncn3)c2n1"
  test-target: "PTGER2 (EP2) (Homo sapiens)"
  pIC50: 6.38
- chemical-string: "CCOc1cc(-c2cc(NCCc3c(OC(F)F)ccc4ccccc34)ncn2)sc1C(=O)O"
  test-target: "PTGER2 (EP2) (Homo sapiens)"
  pIC50: 8.00
- chemical-string: "CCOc1cc(-c2cc(NCCc3cccc4sccc34)ncn2)sc1C(=O)O"
  test-target: "PTGER2 (EP2) (Homo sapiens)"
  pIC50: 7.51
- chemical-string: "CCOc1cc(-c2cc(NCCc3cccc4cnccc34)ncn2)sc1-c1noc(=O)[nH]1"
  test-target: "PTGER2 (EP2) (Homo sapiens)"
  pIC50: 7.52
- chemical-string: "CCOc1cc(-c2cc(NCCc3ccc(OC)c4ccccc34)ncn2)sc1C(=O)O"
  test-target: "PTGER2 (EP2) (Homo sapiens)"
  pIC50: 6.81
- chemical-string: "CCOc1cc(-c2cc(NCCc3ccc(Br)c4ccn(C)c34)ncn2)ccc1CC(=O)O"
  test-target: "PTGER2 (EP2) (Homo sapiens)"
  pIC50: 6.20
- chemical-string: "CCOc1cc(-c2cc(NCCc3c(Cl)ccc4cccnc34)ncn2)sc1C(=O)O"
  test-target: "PTGER2 (EP2) (Homo sapiens)"
  pIC50: 7.57
- chemical-string: "CCOc1cc(-c2cc(NCCc3c(OC)ccc4c3ccn4C)ncn2)ccc1C(=O)O"
  test-target: "PTGER2 (EP2) (Homo sapiens)"
  pIC50: 8.05

====

- test-target: PTGER4 (EP4) (Homo sapiens, UniProt P35408)
- Construct: host or cells: HEK 293 (PathHunter, stably transfected)
- Sequence (P35408 whole entry): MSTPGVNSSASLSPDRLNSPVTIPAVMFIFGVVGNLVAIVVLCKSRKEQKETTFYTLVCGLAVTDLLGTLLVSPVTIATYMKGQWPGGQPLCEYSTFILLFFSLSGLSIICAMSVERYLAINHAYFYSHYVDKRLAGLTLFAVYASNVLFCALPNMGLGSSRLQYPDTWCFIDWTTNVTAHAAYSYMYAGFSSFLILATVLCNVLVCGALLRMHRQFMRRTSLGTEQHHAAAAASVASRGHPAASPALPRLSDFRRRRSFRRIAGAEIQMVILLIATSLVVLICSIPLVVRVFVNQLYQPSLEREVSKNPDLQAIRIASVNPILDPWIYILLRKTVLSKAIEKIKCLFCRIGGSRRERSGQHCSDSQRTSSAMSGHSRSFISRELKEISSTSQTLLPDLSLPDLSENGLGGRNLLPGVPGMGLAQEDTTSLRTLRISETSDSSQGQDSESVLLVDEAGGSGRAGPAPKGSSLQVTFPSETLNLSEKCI
- experimental-details: hEP4 b-Arrestin Assay (PathHunter HEK 293 PTGER4 b-arrestin cells, PGE2 20 nM)
- Type: cell-based
- test-parameters: antagonistic activity, beta-arrestin assay, HEK 293 PTGER4 cells, PGE2 20 nM (EC80); read-out: hEP4 b-arr IC50
log10(IC50) values, listed per item
quantity-measured: log10(IC50) (log10 of the value in µM)

- chemical-string: "COc1ccc2sccc2c1CCNc1cc(-c2ccc(C(=O)O)c(SC)c2)ncn1"
  quantity-measured: "log10(IC50)"
  measurement: -0.53
- chemical-string: "CCOc1cc(-c2cc(NCCc3c(C#N)ccc4ccccc34)ncn2)ccc1C(=O)O"
  quantity-measured: "log10(IC50)"
  measurement: -0.30
- chemical-string: "CCOc1cc(-c2cc(NCCc3c(OCC)ccc4ccccc34)ncn2)ccc1C(=O)O"
  quantity-measured: "log10(IC50)"
  measurement: -0.03
- chemical-string: "CCOc1cc(-c2cc(NCCc3c(OC)ccc4sccc34)ncn2)ccc1C(=O)O"
  quantity-measured: "log10(IC50)"
  measurement: -0.70
- chemical-string: "CCCCOc1cc(-c2cc(NCCc3c(OC)ccc4ccccc34)ncn2)ccc1C(=O)O"
  quantity-measured: "log10(IC50)"
  measurement: -0.65
- chemical-string: "COc1ccc2c(c1CCNc1cc(-c3cc(C(F)(F)F)c(C(=O)O)s3)ncn1)CCCN2C"
  quantity-measured: "log10(IC50)"
  measurement: -0.90
- chemical-string: "CCOc1ccc2ccccc2c1CCNc1cc(-c2ccc(C(=O)O)c(OC3CCC3)c2)ncn1"
  quantity-measured: "log10(IC50)"
  measurement: -0.41
- chemical-string: "CSc1cc(-c2cc(NCCc3cc(F)cc4ccccc34)ncn2)ccc1C(=O)O"
  quantity-measured: "log10(IC50)"
  measurement: -0.06
- chemical-string: "COc1ccc2ccccc2c1CCNc1cc(-c2ccc(C(=O)O)c(OCCO)c2)ncn1"
  quantity-measured: "log10(IC50)"
  measurement: 0.35
- chemical-string: "COc1ccc2c(ccn2C)c1CCNc1cc(-c2ccc(C(=O)O)c(SC)c2)ncn1"
  quantity-measured: "log10(IC50)"
  measurement: -0.61
- chemical-string: "CCOc1cc(-c2cc(NCCc3ccc(C(F)F)c4ccccc34)ncn2)ccc1OCC(=O)O"
  quantity-measured: "log10(IC50)"
  measurement: -1.47
- chemical-string: "CCOc1cc(-c2cc(NCCc3c(OC)ccc4c3OCO4)ncn2)sc1C(=O)O"
  quantity-measured: "log10(IC50)"
  measurement: -1.29
- chemical-string: "CCOc1cc(-c2cc(NCCc3c(C)ccc4c3cnn4C)ncn2)sc1C(=O)O"
  quantity-measured: "log10(IC50)"
  measurement: -0.71
- chemical-string: "COc1ccc2ccccc2c1CCNc1cc(-c2ccc(-c3cc(O)no3)cc2)ncn1"
  quantity-measured: "log10(IC50)"
  measurement: -0.55
- chemical-string: "CCOc1cc(-c2cc(NCCc3c(OC)c(OC)cc4ccccc34)ncn2)sc1C(=O)O"
  quantity-measured: "log10(IC50)"
  measurement: -1.77
- chemical-string: "CSc1cc(-c2cc(NCCc3ccc(Br)c4ccn(C)c34)ncn2)ccc1C(=O)O"
  quantity-measured: "log10(IC50)"
  measurement: -0.46
- chemical-string: "CCOc1cc(-c2cc(NCCc3c(OC)ccc4ccccc34)ncn2)ccc1Cc1noc(=O)[nH]1"
  quantity-measured: "log10(IC50)"
  measurement: -0.66

====

- test-target: PTGER2 (EP2) (Homo sapiens, UniProt P43116)
- Sequence (P43116 whole entry): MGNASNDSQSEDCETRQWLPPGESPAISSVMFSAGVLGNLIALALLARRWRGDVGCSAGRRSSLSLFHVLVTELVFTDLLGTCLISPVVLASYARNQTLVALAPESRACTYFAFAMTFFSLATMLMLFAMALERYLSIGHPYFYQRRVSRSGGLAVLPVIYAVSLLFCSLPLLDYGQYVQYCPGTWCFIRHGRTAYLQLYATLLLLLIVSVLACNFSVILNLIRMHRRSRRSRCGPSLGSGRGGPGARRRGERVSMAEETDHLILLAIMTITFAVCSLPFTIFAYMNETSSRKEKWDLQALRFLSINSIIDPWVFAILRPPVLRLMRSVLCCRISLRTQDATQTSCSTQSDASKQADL
- experimental-details: hEP2 b-Arrestin Assay (PathHunter HEK 293 PTGER2 b-arrestin cells, PGE2 5 μM)
- test-parameters: antagonistic activity, beta-arrestin assay, HEK 293 PTGER2 cells, PGE2 5 μM (EC80); read-out: hEP2 b-arr IC50
quantity-measured: log10 IC50 (log10 of the value in nM)

- molecule: "CCOc1cc(-c2cc(NCCc3c(OC)ccc4c3CCO4)ncn2)sc1C(=O)O [Example 34]"
  quantity-measured: "log10 IC50"
  measurement: 1.59
- molecule: "CCOc1cc(-c2cc(NCCc3c(OC)ccc4sccc34)ncn2)ccc1C(=O)O [Example 185]"
  quantity-measured: "log10 IC50"
  measurement: 1.15
- molecule: "CCOc1cc(-c2cc(NCCc3cccc4ccccc34)ncn2)ccc1C(=O)O [Example 6]"
  quantity-measured: "log10 IC50"
  measurement: 1.93
- molecule: "O=C(O)c1ccc(-c2cc(NCCc3ccc(Cl)c4ccccc34)ncn2)cc1OC1CCC1 [Example 61]"
  quantity-measured: "log10 IC50"
  measurement: 2.05
- molecule: "CSc1cc(-c2cc(NCCc3c(C)ccc4c3ccn4C)ncn2)ccc1C(=O)O [Example 176]"
  quantity-measured: "log10 IC50"
  measurement: 0.48
- molecule: "COc1cc(-c2cc(NCCc3c(OC)ccc4ncccc34)ncn2)sc1C1(O)COC1 [Example 89]"
  quantity-measured: "log10 IC50"
  measurement: 2.25
- molecule: "CCOc1cc(-c2cc(NCCc3ccc(Br)c4ccccc34)ncn2)ccc1CC(=O)O [Example 162]"
  quantity-measured: "log10 IC50"
  measurement: 2.34
- molecule: "CCCCOc1cc(-c2cc(NCCc3c(OC)ccc4ccccc34)ncn2)cc(F)c1C(=O)O [Example 124]"
  quantity-measured: "log10 IC50"
  measurement: 1.54

====

# reported pIC50; entries follow
- test-target: EP4 (Homo sapiens, UniProt P35408)
- Construct: BT549 breast cancer cells, express high endogenous EP4 levels and very low EP2 levels
- Sequence (P35408 whole entry): as the sequence (P35408 whole entry) above
- experimental-details: hEP4 cAMP Assay (BT549 breast cancer cells, HTRF cAMP, PGE2 6 nM)
- test-parameters: antagonistic activity, PGE2 6 nM (EC80)
pIC50: −log10 of the molar value.
quantity-measured: pIC50

- chemical-string: "CCOc1cc(-c2cc(NCCc3ccc(OC)c4ccccc34)ncn2)ccc1OCC(=O)O"
  measurement: 6.42
- chemical-string: "CCOc1cc(-c2cc(NCCc3cccc4ccn(C)c34)ncn2)ccc1OCC(=O)O"
  measurement: 6.20
- chemical-string: "CCOc1cc(-c2cc(NCCc3cccc4cc(C)[nH]c34)ncn2)sc1C(=O)O"
  measurement: 6.22
- chemical-string: "CCOc1cc(-c2cc(NCCc3cccc4sccc34)ncn2)ccc1OCC(=O)O"
  measurement: 6.34
- chemical-string: "CCOc1cc(-c2cc(NCCc3ccc(C)c4ccccc34)ncn2)ccc1C(=O)O"
  measurement: 6.57
- chemical-string: "CCOc1cc(-c2cc(NCCc3c(Br)ccc4ccccc34)ncn2)ccc1C(=O)O"
  measurement: 6.04
